Each recorded value in this set is attributed to patent US11945822B2.

system: RPMI-8226; test: Cellular RPMI-8226 viability assay (CellTiter-Glo, 72 hours); format: cell-based; details: Homo sapiens
value type: IC50

Recorded IC50 for CC(C)c1cnn2c(NCc3cccc4ccc(-n5cccn5)nc34)nc(N3CCC(N)CC3)nc12 [Compound 59] , please?
1000 to 10000 nM

Recorded IC50 for CC(C)c1cnn2c(NCc3ccccc3N3CCCC3)nc(N3CCC(N)CC3)nc12 [Compound 54] , please?
1000 to 10000 nM

Recorded IC50 for CC(C)c1cnn2c(NCc3ccccc3-c3cn4c(n3)CCCC4)nc(N3CCC(N)CC3)nc12 [Compound 122] , please?
< 1000 nM

Recorded IC50 for CC(C)c1cnn2c(NCc3ccccc3-n3cc4c(n3)CCNC4=O)nc(N3CCC(N)CC3)nc12 [Compound 134] , please?
< 1000 nM

Recorded IC50 for CC(C)c1cnn2c(NCc3ccccc3-c3ccc4c(c3)NC(=O)C(C)(C)O4)nc(N3CCC(N)CC3)nc12 [Compound 138] , please?
< 1000 nM

Recorded IC50 for CC(C)c1cnn2c(NCc3ccccc3-n3cc4cccc(NC(=O)CCCN(C)C)c4n3)nc(N3CCC(N)CC3)nc12 [Compound 126] , please?
< 1000 nM

Recorded IC50 for CC(C)c1cnn2c(NCc3ccccc3N(C)c3ccccc3)nc(N3CCC(N)CC3)nc12 [Compound 63] , please?
1000 to 10000 nM

Recorded IC50 for CC(C)c1cnn2c(NCc3ccccc3-c3cn4ccccc4n3)nc(N3CCC(N)CC3)nc12 [Compound 110] , please?
< 1000 nM

Recorded IC50 for CC(C)c1cnn2c(NCc3ccccc3-n3cccn3)nc(-c3ccc(Cl)c(C4CCNCC4)c3)nc12 [Compound 170] , please?
1000 to 10000 nM

Recorded IC50 for CC(C)c1cnn2c(NCc3ccccc3-c3cc4cccc(NC(=O)C5CC5)c4[nH]3)nc(N3CCC(N)CC3)nc12 [Compound 144] , please?
< 1000 nM

Recorded IC50 for CC(C)c1cnn2c(NCc3ccccc3-n3cc4cc(Cl)ccc4n3)nc(N3CCC(N)CC3)nc12 [Compound 103] , please?
< 1000 nM

Recorded IC50 for CC(C)c1cnn2c(NCc3ccccc3-c3nccc4c(NC(=O)CCCN(C)C)cccc34)nc(N3CCC(N)CC3)nc12 [Compound 90] , please?
1000 to 10000 nM

====

Answer each item with its documented IC50.
target: CDK2/Cyclin A (Homo sapiens, UniProt P24941); construct: purchased Invitrogen PV6290; assay: Enzymatic assay for CDK2 (FRET based LANCE Ultra kinase assay); format: biochemical; settings: read-out: CDK2 enzymatic activity (IC50 range)

Recorded IC50 for `CC(C)c1cnn2c(NCc3ccccc3-c3cnc4ccccc4n3)nc(N3CCC(N)CC3)nc12` , please?
100 to 1000 nM

Recorded IC50 for `CC(=O)Nc1ccc2[nH]c(-c3ccccc3CNc3nc(N4CCC(N)CC4)nc4c(C(C)C)cnn34)cc2c1` , please?
< 100 nM

Recorded IC50 for `CC(C)c1cnn2c(NCc3ccccc3-n3cccn3)nc(N3CCN(C)CC3)nc12` , please?
> 1000 nM

Recorded IC50 for `NC1CCN(c2nc(NCc3ccccc3-n3cccn3)n3ncc(C4CCCC4)c3n2)CC1` , please?
100 to 1000 nM

Recorded IC50 for `CC(=O)NC1CCN(c2nc(NCc3c(Cl)cccc3-n3ccc(C(C)(C)O)n3)n3ncc(C(C)C)c3n2)CC1` , please?
> 1000 nM

Recorded IC50 for `CC(C)c1cnn2c(N[C@@H](C)c3ccccc3-c3cc4ccccc4[nH]3)nc(N3CCC(N)CC3)nc12` , please?
> 1000 nM

Recorded IC50 for `COc1cccc(-n2cccn2)c1CNc1nc(N2CCC(N)CC2)nc2c(C(C)C)cnn12` , please?
> 1000 nM

Recorded IC50 for `CC(C)c1cnn2c(NCc3ccsc3-n3cccn3)nc(N3CCC(N)CC3)nc12` , please?
100 to 1000 nM

Recorded IC50 for `CC(C)c1cnn2c(NCc3ccccc3-c3cc4ccccc4[nH]3)nc(NC3CCOCC3)nc12` , please?
> 1000 nM

Recorded IC50 for `CNC(=O)c1cccc(F)c1CNc1nc(N2CCC(N)CC2)nc2c(C(C)(C)C)cnn12` , please?
> 1000 nM

Recorded IC50 for `CC(C)c1cnn2c(NCc3ccccc3-n3ccc(C(C)(C)O)n3)nc(N3CCC(O)(CN)CC3)nc12` , please?
> 1000 nM

Recorded IC50 for `CC(C)c1cnn2c(NCc3ccccc3-n3cc4cc(C(=O)NC5CC5)ccc4n3)nc(N3CCC(N)CC3)nc12` , please?
100 to 1000 nM

Recorded IC50 for `CC(C)c1cnn2c(NCc3ccccc3-c3cc4cccc(NC(=O)N(C)C)c4[nH]3)nc(N3CCC(N)CC3)nc12` , please?
< 100 nM

Recorded IC50 for `CC(C)c1cnn2c(NCc3ccccc3-c3ccc4[nH]c(NC(=O)C5CC5)nc4c3)nc(N3CCC(N)CC3)nc12` , please?
100 to 1000 nM

Recorded IC50 for `N#Cc1cnn2c(NCc3ccccc3-n3cccn3)nc(N3CCC(N)CC3)nc12` , please?
100 to 1000 nM

Recorded IC50 for `CC(C)c1cnn2c(NCc3ccccc3-n3ccc(C(C)(C)O)n3)nc(NCC3(O)CCNCC3)nc12` , please?
100 to 1000 nM

====

biological target: CDK1/Cyclin B (Homo sapiens); construct: purchased Invitrogen PR4768C; experiment: Enzymatic assay for CDK1 (FRET based LANCE Ultra kinase assay); format: biochemical; details: read-out: CDK1 enzymatic activity (IC50 range)
Sequence (P06493 whole entry): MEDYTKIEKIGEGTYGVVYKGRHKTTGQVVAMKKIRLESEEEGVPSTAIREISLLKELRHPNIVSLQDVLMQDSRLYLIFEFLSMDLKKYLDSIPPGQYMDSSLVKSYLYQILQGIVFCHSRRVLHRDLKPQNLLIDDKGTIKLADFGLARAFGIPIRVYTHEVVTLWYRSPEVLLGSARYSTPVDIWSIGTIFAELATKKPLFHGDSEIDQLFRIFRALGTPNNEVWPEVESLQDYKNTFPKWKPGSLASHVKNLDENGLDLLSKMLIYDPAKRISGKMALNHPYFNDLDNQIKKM
Sequence (P14635 whole entry partner): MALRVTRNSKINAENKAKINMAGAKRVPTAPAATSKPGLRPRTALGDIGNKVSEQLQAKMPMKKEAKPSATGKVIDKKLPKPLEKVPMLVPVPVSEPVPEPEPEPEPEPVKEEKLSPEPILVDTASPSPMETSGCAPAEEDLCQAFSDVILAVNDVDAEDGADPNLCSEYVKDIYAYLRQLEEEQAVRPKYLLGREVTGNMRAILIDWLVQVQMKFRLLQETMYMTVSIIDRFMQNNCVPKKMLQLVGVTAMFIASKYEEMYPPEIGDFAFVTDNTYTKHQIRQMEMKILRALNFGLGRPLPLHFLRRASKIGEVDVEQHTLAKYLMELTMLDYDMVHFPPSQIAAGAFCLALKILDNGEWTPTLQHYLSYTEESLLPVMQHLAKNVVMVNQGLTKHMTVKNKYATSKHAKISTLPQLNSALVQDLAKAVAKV
pIC50: −log10 of the molar value.
value type: pIC50

Recorded pIC50 for CC(=O)Nc1ccc2[nH]c(-c3ccccc3CNc3nc(N4CCC(N)CC4)nc4c(C(C)C)cnn34)cc2c1 [Compound 116] , please?
6.00 to 7.00

Recorded pIC50 for CC(C)c1cnn2c(NCc3ccccc3-n3ccc(C(C)(C)O)n3)nc(N3CCC(N)CC3)nc12 [Compound 236] , please?
6.00 to 7.00

Recorded pIC50 for CC(C)c1cnn2c(NCc3ccccc3-c3ccc4ccccc4n3)nc(N3CCC(O)(CN)CC3)nc12 [Compound 219] , please?
< 6.00

Recorded pIC50 for CC(C)c1cnn2c(NCc3ccccc3-c3ccc4ccccc4n3)nc(OCC3CCNCC3)nc12 [Compound 215] , please?
< 6.00

Recorded pIC50 for CC(C)c1cnn2c(NCc3ccccc3-n3cccn3)nc(-c3ccc(Cl)c(OC4CCNCC4)c3)nc12 [Compound 173] , please?
< 6.00

Recorded pIC50 for CC(C)c1cnn2c(NCc3ccccc3-c3nccc4cc(NC(=O)CCCN(C)C)ccc34)nc(N3CCC(N)CC3)nc12 [Compound 92] , please?
< 6.00

Recorded pIC50 for CC(C)c1cnn2c(NCc3ccc(Cl)c(-n4cccn4)c3)nc(N3CCC(N)CC3)nc12 [Compound 67] , please?
< 6.00

Recorded pIC50 for CC(C)c1cnn2c(NCc3c(Cl)cccc3C#N)nc(N3CCC(N)CC3)nc12 [Compound 242] , please?
< 6.00

Recorded pIC50 for CC(C)c1cnn2c(NCc3c(-n4cccn4)cccc3C(F)(F)F)nc(N3CCC(N)CC3)nc12 [Compound 46] , please?
< 6.00

Recorded pIC50 for CC(C)c1cnn2c(NCc3c(Cl)cccc3-c3cc4ccccc4[nH]3)nc(N3CCC(N)CC3)nc12 [Compound 182] , please?
< 6.00

Recorded pIC50 for CC(C)c1cnn2c(NCc3ccccc3NC(=O)c3ccccc3)nc(N3CCC(N)CC3)nc12 [Compound 87] , please?
< 6.00

====

Answer each item with its documented pIC50.
molecular target: CDK5/p25 (Homo sapiens, UniProt Q00535); construct: purchased Invitrogen PR8543B; test: Enzymatic assay for CDK5 (FRET based LANCE Ultra kinase assay); type: biochemical; settings: read-out: CDK5 enzymatic activity (IC50 range)
Sequence (Q00535 whole entry): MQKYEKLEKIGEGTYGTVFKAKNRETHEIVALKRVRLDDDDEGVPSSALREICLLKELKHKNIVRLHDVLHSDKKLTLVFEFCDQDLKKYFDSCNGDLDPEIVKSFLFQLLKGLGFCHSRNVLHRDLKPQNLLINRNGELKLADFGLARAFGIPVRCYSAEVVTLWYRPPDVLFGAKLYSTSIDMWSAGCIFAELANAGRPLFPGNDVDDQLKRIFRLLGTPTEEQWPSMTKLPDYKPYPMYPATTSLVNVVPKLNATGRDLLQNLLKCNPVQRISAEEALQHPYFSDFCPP
Sequence (Q15078 99-307 partner limits assumed): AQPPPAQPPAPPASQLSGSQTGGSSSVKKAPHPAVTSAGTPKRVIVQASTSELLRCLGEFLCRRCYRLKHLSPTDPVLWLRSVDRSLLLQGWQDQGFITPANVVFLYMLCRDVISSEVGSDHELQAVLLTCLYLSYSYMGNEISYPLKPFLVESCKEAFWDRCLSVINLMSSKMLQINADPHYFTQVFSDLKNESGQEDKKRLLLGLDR
pIC50: −log10 of the molar value.

Recorded pIC50 for `CC[C@@H](N)COc1nc(NCc2ccccc2-c2ccc3ccccc3n2)n2ncc(C(C)C)c2n1` , please?
< 6.00

Recorded pIC50 for CC(C)c1cnn2c(NCc3ccccc3-c3ccc4ccccc4n3)nc(NCC(O)CCN)nc12 (racemic) , please?
< 6.00

Recorded pIC50 for `Cc1nc2c(CNc3nc(N4CCC(N)CC4)nc4c(C(C)C)cnn34)cccc2o1` , please?
> 7.00

Recorded pIC50 for `CCCc1ccc2nn(-c3ccccc3CNc3nc(N4CCC(N)CC4)nc4c(C(C)C)cnn34)cc2c1` , please?
6.00 to 7.00

Recorded pIC50 for `CC(=O)c1ccc2nn(-c3ccccc3CNc3nc(N4CCC(N)CC4)nc4c(C(C)C)cnn34)cc2c1` , please?
6.00 to 7.00

Recorded pIC50 for `CC(C)c1cnn2c(NCc3ccccc3OC3CCN(C)CC3)nc(N3CCC(N)CC3)nc12` , please?
6.00 to 7.00

Recorded pIC50 for `CC(C)c1cnn2c(NCc3c(Cl)cccc3-n3ccc(C(C)(C)O)n3)nc(N3CCC(CN)CC3)nc12` , please?
< 6.00

Recorded pIC50 for `CC(C)(C)c1cnn2c(NCc3ccccc3-n3cccn3)nc(N3CCC(N)CC3)nc12` , please?
> 7.00

Recorded pIC50 for `CC(C)c1cnn2c(NCc3ccccc3-c3nccc4ccccc34)nc(N3CCC(N)CC3)nc12` , please?
< 6.00

Recorded pIC50 for `CC(C)c1cnn2c(N[C@@H](C)c3ccccc3-c3cc4ccccc4[nH]3)nc(N3CCC(N)CC3)nc12` , please?
< 6.00
